# Tested on: SK-OV-3
# Assay method text: NCI tumour cell line growth inhibition, 48 h
The source made the active and inactive calls. No stated cut-off is given here; in the data, active = GI50 up to about 1.1 µM and inactive = higher.
Exercise: for every item that follows, state its recorded GI50.

Consider the worked cases shown below.
- Cc1c2c(C(N)=O)nccc2c(C)c2c1c1ccccc1n2Cc1ccccc1: 22.9 µM (inactive)
- O=C1c2cc3c(cc2[C@@H]2NC4CCCC14O2)OCO3 (stereo not given in full): > 100 µM (inactive)
- Cc1nc(N)nc(N)c1-c1ccc(Cl)c(Cl)c1: 3.48 µM (inactive)
- COCC1OC(OC2OCC3OC4(OCC(O)(C(C)OC)C5OCOC54)OC3C2OC)C(OC)C(O)C1OC1OC(C)C(OC)C(OC2OC(C)C3OC4(CC(O)C(OC5CC(OC6CC(C)([N+](=O)[O-])C(OC)C(C)O6)C(OC(=O)c6c(C)c(Cl)c(O)c(Cl)c6OC)C(C)O5)C(C)O4)OC3(C)C2O)C1O (stereo not given): > 100 µM (inactive)
- Nc1ccc(C(c2ccccc2)(c2ccccc2)c2ccccc2)cc1: 17.6 µM (inactive)
- ClCCN(CCCl)c1ccc(CNCCCNCc2ccc(N(CCCl)CCCl)cc2)cc1: 2.61 µM (inactive)
- Cc1nc2cccc(F)c2c(=O)n1-c1nnc(C(F)(F)F)s1: > 10 µM (inactive)
- COC(=O)/C=C(\CC(=O)OC)n1nnnc1[C@@H]1C[C@H](COC(c2ccccc2)(c2ccccc2)c2ccccc2)[C@H]2OC(C)(C)O[C@H]21: > 100 µM (inactive)
- CCC(C)C1NC(=O)CNC(=O)C2Cc3c([nH]c4cc(O)ccc34)[S+]([O-])CC(NC(=O)CNC1=O)C(=O)NC(CC(=O)O)C(=O)N1CC(O)CC1C(=O)NC(C(C)C(O)CO)C(=O)N2 (stereo not given): 13.2 µM (inactive)
- CN1C(=O)C2C(C1=O)C1(O)c3ccccc3C2(N)c2ccccc21 (stereo not given): > 100 µM (inactive)

Batch: GI50 for all items listed.
1. Cc1cc(NS(=O)(=O)c2ccc(NC(NC(=O)C(C(F)(F)F)C(F)(F)F)(C(F)(F)F)C(F)(F)F)cc2)no1
2. COc1cc(/C=C/C(=N\NC(=S)NN)c2sc(NNC(C)=O)nc2C)ccc1O

Reply:
1: 1.96 µM (inactive); 2: > 100 µM (inactive)

Batch: GI50 for all items listed.
1. CCNc1cc2c3c(c1)CCN3CCC2
2. Cc1c(C(=O)CC(=O)C(=O)Nc2ccc(Cl)cc2)[n+]([O-])c2ccccc2[n+]1[O-]
3. O=c1ccn(C/C=C/c2ccccc2)c(=S)n1C/C=C/c1ccccc1
4. CCCCC1Cc2cc(OC)ccc2-c2n1c1cc(OC)ccc1[n+]2C.CCCCC1Cc2cc(OC)ccc2-c2n1c1ccc(OC)cc1[n+]2C (stereo not given)
5. CCOC(=O)C(C#N)(Cc1c[nH]c2ccccc12)NC(C)=O (stereo not given)
6. COc1ccc(/C=c2/[nH]c(=O)/c(=C\c3ccc(OCc4ccccc4)cn3)[nH]c2=O)cc1

Reply:
["> 10 µM (inactive)", "> 100 µM (inactive)", "> 100 µM (inactive)", "10 µM (inactive)", "> 100 µM (inactive)", "55 µM (inactive)"]

Hi there! I need GI50 for each item below, if you can.
1. CN(C)C(=S)/N=c1\sn(C)/c(=N\C(=S)N(C)C)n1C
2. NC(=O)NNC(=O)CCn1[nH]c(=O)c(Cl)c(Cl)c1=O
3. COC(=O)c1nc(-c2nc(CCNC(=O)OC(C)(C)C)sc2Cl)sc1Cl

Reply:
1. > 100 µM (inactive)
2. > 100 µM (inactive)
3. > 100 µM (inactive)

Provide GI50 values for the following items, in order.
1. NNC(=O)Cc1cccnc1
2. C=CCONC(=O)c1ccc(Cl)cc1
3. COC(=O)c1cc(Br)c(C(=O)C(Cl)(Cl)Cl)[nH]1
4. Nc1ncnc2c1ncn2CCCCC(=O)O

Reply:
> 100 µM (inactive)
> 100 µM (inactive)
> 100 µM (inactive)
> 100 µM (inactive)
